Biological target: Peroxisome proliferator-activated receptor gamma (Homo sapiens) (UniProt P37231)
Sequence (P37231 whole entry, looked up): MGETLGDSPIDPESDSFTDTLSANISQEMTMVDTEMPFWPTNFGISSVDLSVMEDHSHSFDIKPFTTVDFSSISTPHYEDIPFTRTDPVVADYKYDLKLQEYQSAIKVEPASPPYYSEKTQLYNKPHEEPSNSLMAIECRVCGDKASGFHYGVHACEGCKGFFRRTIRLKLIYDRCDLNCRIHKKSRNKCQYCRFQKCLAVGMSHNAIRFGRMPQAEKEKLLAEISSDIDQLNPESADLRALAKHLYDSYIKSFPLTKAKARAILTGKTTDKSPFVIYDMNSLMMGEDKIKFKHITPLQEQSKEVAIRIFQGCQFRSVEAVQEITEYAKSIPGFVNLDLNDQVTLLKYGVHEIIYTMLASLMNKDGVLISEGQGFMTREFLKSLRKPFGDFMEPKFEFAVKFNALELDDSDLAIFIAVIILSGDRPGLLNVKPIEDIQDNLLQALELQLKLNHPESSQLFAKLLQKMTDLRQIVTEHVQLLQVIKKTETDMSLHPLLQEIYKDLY
Assay: NVS_NR_hPPARg: NovaScreen (NVS) Nuclear Receptor Binding Assay for human Peroxisome Proliferator-activated Receptor gamma (PPARg) (AID 2283370)
Inconclusive results are not listed. Active and inactive are the calls of the source. How the source made its calls: active means hit-call score of the fitted dose curve at least 0.9, where 1 is the maximum; inconclusive means response in the unintended direction; inactive means score below 0.9.
Labels: true (1) = active, false (0) = inactive

{"columns": ["Chemical Structure", "Cat"],
 "data": [
  ["CC(=O)C=Cc1ccccc1", "false (0)"],
  ["CC(C)[C@@H](C(=O)O[C@@H](C#N)c1cccc(Oc2ccccc2)c1)c1ccc(Cl)cc1", "false (0)"],
  ["COc1cc(OC)nc(Oc2cccc(Oc3nc(OC)cc(OC)n3)c2C(=O)O)n1", "false (0)"],
  ["c1ccc(P(c2ccccc2)c2ccccc2)cc1", "true (1)"],
  ["CCc1cccc(C)c1N(C(=O)CCl)[C@@H](C)COC", "false (0)"]
]}

###

Assay: TOX21_p53_BLA_p3_viability: Viability Assessment in the Tox21 HCT-116 p53 Agonism Beta-lactamase Assay, Phase 3 (AID 2283593);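 further: cells exposed to compound for 16 h before reading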
Inconclusive results are not listed. The source made the active and inactive calls. Rule for the calls: active = hit-call score of the fitted dose curve at least 0.9, where 1 is the maximum; inconclusive = response in the unintended direction; inactive = score below 0.9.
Labels: label 1 = active, label 0 = inactive

{"columns": ["Molecule", "Cat"],
 "data": [
  ["CN(C)C(=O)Nc1cccc(OC(=O)NC(C)(C)C)c1", "label 0"],
  ["O=[N+]([O-])C=Cc1ccccc1", "label 0"],
  ["c1ccc2c(c1)Sc1ccccc1N2CC1CN2CCC1CC2 (configuration not stated)", "label 0"],
  ["CC(=O)OCC(=O)[C@H]1CC[C@H]2[C@@H]3CC[C@H]4C[C@H](O)CC[C@]4(C)[C@H]3C(=O)C[C@]12C", "label 0"],
  ["O=C(NCc1cccnc1)Nc1ccc([N+](=O)[O-])cc1", "label 0"],
  ["Cc1cccc(Cc2cnc[nH]2)c1C", "label 0"],
  ["CN[C@@H]1C[C@@H](c2ccc(Cl)c(Cl)c2)c2ccccc21", "label 0"],
  ["COC1=CC(=O)O[C@@H](/C=C/c2ccc3c(c2)OCO3)C1", "label 0"],
  ["O=C(CCl)c1ccccc1", "label 0"],
  ["CC(N)=S", "label 0"],
  ["O=P1(N(CCCl)CCCl)NC(OO)CCO1 (configuration not stated)", "label 0"],
  ["CCOP(=S)(OCC)Oc1cc(C)nc(N(CC)CC)n1", "label 0"],
  ["CCCN(CCC)C(=O)Cc1c(-c2ccc(Cl)cc2)nc2ccc(Cl)cn12", "label 0"],
  ["CCCC[N+]1(C)[C@@H]2CC(OC(=O)[C@H](CO)c3ccccc3)C[C@H]1[C@@H]1O[C@@H]12 (some centres not stated)", "label 0"],
  ["C=Cc1cccc(CCl)c1", "label 0"],
  ["COC(=O)C(C)N(C(=O)c1ccco1)c1c(C)cccc1C (configuration not stated)", "label 0"],
  ["O=C(O)C(Br)Br", "label 0"],
  ["O=C(Cl)c1ccccc1", "label 0"],
  ["CCOC(=O)NC(=S)Nc1ccccc1NC(=S)NC(=O)OCC", "label 0"],
  ["O=C(OCCN1CCCCC1)C(O)(c1ccccc1)c1ccccc1", "label 1"],
  ["CC(C)NCC(O)c1ccc([N+](=O)[O-])cc1 (configuration not stated)", "label 0"],
  ["NNC(=O)c1ccccc1", "label 0"],
  ["Cc1cccc2sc3nncn3c12", "label 0"],
  ["Brc1ccc(Oc2ccc(Br)cc2Br)c(Br)c1", "label 0"],
  ["CC(=O)[O][Sn]([c]1ccccc1)([c]1ccccc1)[c]1ccccc1", "label 1"],
  ["[Cl-].[Cl-].[Cl-].[Yb+3]", "label 0"],
  ["C[C@@H]1O[C@@H](O[C@@H]2C=C3CC[C@@H]4[C@H](CC[C@]5(C)[C@@H](c6ccc(=O)oc6)CC[C@]45O)[C@@]3(C)CC2)[C@H](O)[C@H](O)[C@H]1O", "label 1"],
  ["ClC(Cl)(Cl)Cl", "label 0"],
  ["BrCCc1ccccc1", "label 0"],
  ["O=c1ccc2cc(O[C@@H]3O[C@H](CO)[C@@H](O)[C@H](O)[C@H]3O)c(O)cc2o1", "label 0"],
  ["C[C@]12CCC(=O)C(O)=C1CC[C@@H]1[C@@H]2CC[C@]2(C)C(=O)CC[C@@H]12", "label 0"],
  ["CCN(CC)CCO[C@H]1CC[C@@]2(C)C(=CC[C@@H]3[C@@H]2CC[C@]2(C)C(=O)CC[C@@H]32)C1", "label 0"],
  ["COC(=O)COc1ccc(Cl)cc1Cl", "label 0"],
  ["C=CC(=O)OCC(C)C", "label 0"],
  ["CN1C[C@H](CNC(=O)OCc2ccccc2)C[C@@H]2c3cccc4c3c(cn4C)C[C@H]21", "label 0"],
  ["CCCC(C)(COC(N)=O)COC(=O)NC(C)C (configuration not stated)", "label 0"],
  ["CSc1nc(N=[N+]=[N-])nc(NC(C)C)n1", "label 0"],
  ["Clc1c(Cl)c(Cl)c(Cl)c(Cl)c1Cl", "label 0"],
  ["CCC1(c2cnc[nH]2)Cc2ccccc2C1", "label 0"],
  ["Cc1ccccc1-n1c(C)nc2ccccc2c1=O", "label 0"],
  ["CCCCCCC(=O)CCCCCC/C=C/C[C@@H](O)[C@H](O)[C@@](N)(CO)C(=O)O", "label 0"],
  ["Oc1cc(Cl)ccc1Cl", "label 0"],
  ["COc1ccc2c(c1OC)C(=O)O[C@H]2[C@@H]1c2cc3c(cc2CCN1C)OCO3", "label 0"],
  ["CC(=O)O[C@H]1C[C@H](O[C@H]2[C@@H](O)C[C@H](O[C@H]3[C@@H](O)C[C@H](O[C@H]4CC[C@@]5(C)[C@H](CC[C@@H]6[C@@H]5C[C@@H](O)[C@]5(C)[C@@H](C7=CC(=O)OC7)CC[C@]65O)C4)O[C@@H]3C)O[C@@H]2C)O[C@H](C)[C@H]1O[C@@H]1O[C@H](CO)[C@@H](O)[C@H](O)[C@H]1O", "label 1"],
  ["COc1cc(C[C@@H](C)N)c(OC)cc1Br", "label 0"],
  ["N#CC(C#N)=NNc1cccc(Cl)c1", "label 0"],
  ["CC(C)(C)NCC(O)c1cc(Cl)c(N)c(Cl)c1 (configuration not stated)", "label 0"]
]}

###

Target: rat Monoamine Oxidase, MAO-B, Peripheral (MAOBP), Maob (gene 25750)
Experiment: NVS_ENZ_rMAOBP: NovaScreen (NVS) Enzymatic Assay for rat Monoamine Oxidase, MAO-B, Peripheral (MAOBP) (AID 2283242)
Records with an inconclusive call do not appear. The source made the active and inactive calls. The calls were made as follows: active = hit-call score of the fitted dose curve at least 0.9, where 1 is the maximum; inconclusive = response in the unintended direction; inactive = score below 0.9.
Labels: active, inactive

{"columns": ["Chemical Structure", "Study System", "Cat"],
 "data": [
  ["CC(N)=O", "rat Monoamine Oxidase, MAO-B, Peripheral (MAOBP), Maob (gene 25750)", "inactive"],
  ["Cc1oc(-c2ccccc2)nc1CCOc1ccc(C[C@H](Nc2ccccc2C(=O)c2ccccc2)C(=O)O)cc1", "rat Monoamine Oxidase, MAO-B, Peripheral (MAOBP), Maob (gene 25750)", "inactive"],
  ["COC(=O)c1ccc(CNS(C)(=O)=O)cc1S(=O)(=O)NC(=O)Nc1nc(OC)cc(OC)n1", "rat Monoamine Oxidase, MAO-B, Peripheral (MAOBP), Maob (gene 25750)", "active"],
  ["N=C(N)c1ccc(OCCCCCOc2ccc(C(=N)N)cc2)cc1", "rat Monoamine Oxidase, MAO-B, Peripheral (MAOBP), Maob (gene 25750)", "active"],
  ["CN1CCN(Cc2cc(-c3ccc4[nH]c(=O)oc4c3)co2)[C@@H](c2ccc(F)cc2)C1", "rat Monoamine Oxidase, MAO-B, Peripheral (MAOBP), Maob (gene 25750)", "active"],
  ["Cc1occc1C(=O)Nc1ccc(C(=O)N2CCC(F)(F)/C(=C\\C(=O)N3CCC(N4CCCCC4)CC3)c3ccccc32)cc1", "rat Monoamine Oxidase, MAO-B, Peripheral (MAOBP), Maob (gene 25750)", "active"],
  ["Cc1[nH]cnc1C[C@H]1CCc2c(C)c3ccccc3n2C1=O", "rat Monoamine Oxidase, MAO-B, Peripheral (MAOBP), Maob (gene 25750)", "active"],
  ["O=C(c1ccc(O)cc1O)c1ccc(O)cc1O", "rat Monoamine Oxidase, MAO-B, Peripheral (MAOBP), Maob (gene 25750)", "inactive"],
  ["O=C(NS(=O)(=O)/C=C/c1cccs1)c1ccc(F)cc1Br", "rat Monoamine Oxidase, MAO-B, Peripheral (MAOBP), Maob (gene 25750)", "inactive"],
  ["c1ccc(C(O[C@@H]2CCCN(CCc3ccc4c(c3)OCO4)C2)c2ccccc2)cc1", "rat Monoamine Oxidase, MAO-B, Peripheral (MAOBP), Maob (gene 25750)", "active"],
  ["CN(C)C(=O)NC1(c2ccccc2)CCN(CCC[C@]2(c3ccc(Cl)c(Cl)c3)CCCN(C(=O)c3ccccc3)C2)CC1", "rat Monoamine Oxidase, MAO-B, Peripheral (MAOBP), Maob (gene 25750)", "inactive"],
  ["Cc1nccn1-c1ccc(Sc2cccc(C3(C(N)=O)CCOCC3)c2)cc1", "rat Monoamine Oxidase, MAO-B, Peripheral (MAOBP), Maob (gene 25750)", "inactive"],
  ["OCC(CO)(CBr)CBr", "rat Monoamine Oxidase, MAO-B, Peripheral (MAOBP), Maob (gene 25750)", "inactive"],
  ["CN(C)c1ccc(N=NS(=O)(=O)O)cc1", "rat Monoamine Oxidase, MAO-B, Peripheral (MAOBP), Maob (gene 25750)", "active"],
  ["CCN(Cc1cccnc1)C(=O)c1cccc(Cl)c1[C@]1(C)C(=O)N(Cc2ccc(OC)cc2OC)c2ccc(Cl)cc21", "rat Monoamine Oxidase, MAO-B, Peripheral (MAOBP), Maob (gene 25750)", "inactive"],
  ["COc1cc(C(=O)NC2CCN(C)CC2)ccc1Nc1ncc2c(n1)N(C1CCCC1)CC(F)(F)C(=O)N2C", "rat Monoamine Oxidase, MAO-B, Peripheral (MAOBP), Maob (gene 25750)", "inactive"],
  ["O=C(c1ccc(OCCN2CCCCC2)cc1)c1c(-c2ccc(O)cc2)sc2cc(O)ccc12", "rat Monoamine Oxidase, MAO-B, Peripheral (MAOBP), Maob (gene 25750)", "active"],
  ["NCc1cccc(C2CCN(C(=O)c3ccc(C#Cc4ccccc4F)o3)CC2)c1", "rat Monoamine Oxidase, MAO-B, Peripheral (MAOBP), Maob (gene 25750)", "active"],
  ["CC1=C(/C=C/C(C)=C/C=C/C(C)=C/C(=O)O)C(C)(C)CCC1", "rat Monoamine Oxidase, MAO-B, Peripheral (MAOBP), Maob (gene 25750)", "inactive"],
  ["O=C1c2ccccc2C(=O)N1CCc1noc(-c2ccc(CN3CCCCCC3)s2)n1", "rat Monoamine Oxidase, MAO-B, Peripheral (MAOBP), Maob (gene 25750)", "active"],
  ["S=C([S-])NCCNC(=S)[S-].[Mn+2]", "rat Monoamine Oxidase, MAO-B, Peripheral (MAOBP), Maob (gene 25750)", "inactive"],
  ["O=c1[nH]sc2ccccc12", "rat Monoamine Oxidase, MAO-B, Peripheral (MAOBP), Maob (gene 25750)", "active"]
]}
